Origin of the recorded values: the RNAGym collection of RNA variant scans (doi:10.7554/elife.90254)

B1: OR4K15 (parent)
chain: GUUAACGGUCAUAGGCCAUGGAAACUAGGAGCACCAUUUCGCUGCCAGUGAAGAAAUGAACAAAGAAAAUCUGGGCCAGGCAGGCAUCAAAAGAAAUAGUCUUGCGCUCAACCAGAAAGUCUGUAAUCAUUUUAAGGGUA

Variants of: B1
Experiment: self-cleavage, relative activity (ratio to wild type); higher = more cleavage; in vitro, sequencing; the parent is a self-cleaving ribozyme
value type: self-cleavage
Please state the value as a number alone, without comment.

So what's the measured self-cleavage for this one? A47U U139G 1.4

Tell me the measured self-cleavage of A94C U103C , please. 0.38

What self-cleavage value was documented for this variant, A4G G14A ? 1.05

Any idea what self-cleavage was measured for C6U U26A ? 0.53

Reported self-cleavage, variant A23G A54G : ____ 0.6

Find the recorded self-cleavage belonging to A27U U132A and report it. 1.42

Requested read-out: self-cleavage. Entry: A47C U70C 0.23

I have this variant here, U2C A118U , and I need its recorded self-cleavage. 0.44

Return reported self-cleavage; argument: U9G U57A 0.51

I am curious: what self-cleavage value has been reported for A67G U70G ? 0.68

What does the data say about its self-cleavage? Entry: G65A U132G 0.82

Tell me the measured self-cleavage of U12C A94G , please. 1.34

Name the recorded self-cleavage for U9C A11U . 1.67

Which value of self-cleavage has been reported for U39C A59U in the records? 1.98

What does the record list as self-cleavage for A30U A114U ? 0.11

Find the recorded self-cleavage belonging to A91G A98G and report it. 0.26

Form field: reported self-cleavage of `A82C` 0.07

# query: self-cleavage of entry G7U A95G 1.43

Which self-cleavage is listed for A23U U100C ? 2.74

Return reported self-cleavage; argument: A11G C113G 0.04

What self-cleavage value was documented for this variant, U9C A51G ? 1.27

Endpoint output: self-cleavage of A89G U108A . Value? 0.02
